Target: T1, human tissue factor pathway inhibitor (TFPI) (human, UniProt P10646 29-304, limits assumed)
T1 construct: bought; also called hTFPI; human TFPI
T1 sequence (looked up): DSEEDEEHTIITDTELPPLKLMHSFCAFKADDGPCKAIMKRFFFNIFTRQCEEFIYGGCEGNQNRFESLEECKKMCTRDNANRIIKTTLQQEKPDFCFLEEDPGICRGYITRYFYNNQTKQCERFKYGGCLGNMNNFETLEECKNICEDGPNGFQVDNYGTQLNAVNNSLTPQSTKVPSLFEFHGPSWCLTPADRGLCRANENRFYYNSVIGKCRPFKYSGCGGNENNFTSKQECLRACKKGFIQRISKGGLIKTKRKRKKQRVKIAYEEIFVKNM
Test: SPR, TFPI immobilized
QUANTITY NAME: koff (s⁻¹)
One number for each entry, in s⁻¹.

Please supply the value of reported koff for the item B18.5 (4B7 HC N32D+D62Q+Y112D/LC F31I+D33F+N35I) (Fab, V domains shown) VH: QVQLQQSGPGLVKPSQTLSLTCAISGDSVSSDSAAWSWIRQSPGRGLEWLGIIYKRSKWYNQYAVSVKSRITINPDTSKNQFSLQLNSVTPEDTAVYYCARWHSDKHWGFDDWGQGTLVTVSS VL: DIVMTQSPLSLPVTPGEPASISCRSSQSLVISFGITYLNWYLQKPGQSPQLLIYKGSNRASGVPDRFSGSGSGTDFTLKISRVEAEDVGVYYCQQYDSYPLTFGQGTKVEIKR
3.18e-05
